The origin of these recorded values is the supplement of paper PMC7877785.

Test: self-splicing fitness, log relative to wild type (ln ratio); higher = more splicing; Tetrahymena group I intron in knt gene, E. coli kanamycin selection, DiMSum; sequences stand for … in CUCUCU…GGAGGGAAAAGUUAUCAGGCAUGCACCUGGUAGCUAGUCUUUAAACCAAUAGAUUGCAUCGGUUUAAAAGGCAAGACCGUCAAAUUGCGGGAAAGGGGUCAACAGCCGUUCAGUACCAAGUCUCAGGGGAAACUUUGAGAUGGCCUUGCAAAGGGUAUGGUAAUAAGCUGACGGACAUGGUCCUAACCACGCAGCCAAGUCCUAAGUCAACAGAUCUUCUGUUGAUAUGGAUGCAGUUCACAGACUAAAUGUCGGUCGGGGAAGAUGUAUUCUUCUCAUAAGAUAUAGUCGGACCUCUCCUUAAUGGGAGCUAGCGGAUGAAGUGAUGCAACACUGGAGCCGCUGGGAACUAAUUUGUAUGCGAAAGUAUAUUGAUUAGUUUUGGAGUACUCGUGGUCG;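 further: selection with 25 µg/mL kanamycin versus none on LB agar overnight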
Settings: 37 °C
Okay, here is how we bin by self-splicing fitness (ln): bottom range (below -2), center range (-2 to below -1), top range (-1 or more)

Answered cases to consult:
SEQ STRING: ACGCAGCAAUAUUACGCGAC
GROUP LABEL: bottom range
--
SEQ STRING: AGUGAGCAAUAUUACGCUCA
GROUP LABEL: bottom range
--
SEQ STRING: GGCCAGCAAUAUUACGUCAU
GROUP LABEL: center range
--
SEQ STRING: UAAAAGCAAUAUUACGGGGA
GROUP LABEL: top range
--
SEQ STRING: UGCCAGCAAUAUUACGGCAA
GROUP LABEL: center range

# classify by self-splicing fitness (ln) band: UCUUAGCAAUAUUACGGUUU
center range

# classify by self-splicing fitness (ln) band: CGACAGCAAUAUUACGUGCG
bottom range

# classify by self-splicing fitness (ln) band: GGAGAGCAAUAUUACGAGAG
bottom range

###

Assay: self-splicing fitness, log relative to wild type (ln ratio); higher = more splicing; Tetrahymena group I intron in knt gene, E. coli kanamycin selection, DiMSum; sequences stand for … in CUCUCU…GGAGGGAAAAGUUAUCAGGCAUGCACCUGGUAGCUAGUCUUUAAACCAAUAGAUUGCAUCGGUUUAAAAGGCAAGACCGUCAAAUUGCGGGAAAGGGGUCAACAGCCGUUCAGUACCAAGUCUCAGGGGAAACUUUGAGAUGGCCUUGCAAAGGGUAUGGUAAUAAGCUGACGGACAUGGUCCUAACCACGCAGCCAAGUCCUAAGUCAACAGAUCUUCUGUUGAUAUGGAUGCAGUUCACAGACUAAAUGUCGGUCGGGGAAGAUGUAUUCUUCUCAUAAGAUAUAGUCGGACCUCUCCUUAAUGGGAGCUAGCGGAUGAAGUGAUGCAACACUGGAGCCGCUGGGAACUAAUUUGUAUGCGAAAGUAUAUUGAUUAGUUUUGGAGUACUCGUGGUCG
Details: 30 °C
# maps each entry to its self-splicing fitness (ln)
Form: value (number only, do not type unit).

SEQ STRING: AAUAAGCAAUAUUACGCUAC
self-splicing fitness (ln): -3.62
--
SEQ STRING: UAAGAGCAAUAUUACGUAGA
self-splicing fitness (ln): -3.89
--
SEQ STRING: GAUGAGCAAUAUUACGCUUC
self-splicing fitness (ln): -4.04
--
SEQ STRING: GUUUAGCAAUAUUACGGUCG
self-splicing fitness (ln): -1.35

Give recorded self-splicing fitness (ln). GGCGAGCAAUAUUACGUUAU
-3.17

Give recorded self-splicing fitness (ln). UUAGAGCAAUAUUACGUGCA
-2.16

Give recorded self-splicing fitness (ln). UUAGAGCAAUAUUACGGUCU
-3.05
